# target-or-system: Histone-lysine N-methyltransferase EHMT2 (Homo sapiens) (UniProt Q96KQ7)
# Sequence (Q96KQ7 913-1193 limits assumed): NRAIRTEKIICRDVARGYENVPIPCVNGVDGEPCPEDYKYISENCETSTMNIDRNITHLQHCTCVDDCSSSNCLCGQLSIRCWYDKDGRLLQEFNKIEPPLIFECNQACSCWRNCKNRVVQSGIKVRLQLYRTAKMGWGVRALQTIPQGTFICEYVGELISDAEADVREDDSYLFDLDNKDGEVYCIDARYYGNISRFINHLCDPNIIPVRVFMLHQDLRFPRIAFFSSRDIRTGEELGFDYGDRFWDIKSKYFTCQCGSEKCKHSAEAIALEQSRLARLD
# measurement-protocol: qHTS Assay for Inhibitors of Histone Lysine Methyltransferase G9a; further: nearly all actives have a fitted effect of over 75% in size
# condition-description: G9a H3K9 monomethylation, AlphaScreen, 2 h; series mostly up to 59 µM
# Experimental: Methylated lysines, on the N-terminal tails of histone proteins serve as epigenetic markers to recruit factors that can then modify local chromatin structure to lead to functional consequences. […] Methylation of biotinylated-histone peptide is measured through specific antibody-based detection, in conjunction with streptavidin-coated donor and anti-IgG antibody-coated acceptor beads. […]
In all, about 350,000 compounds went through this assay and about 31,000 (8.9%) were called active. Not shown: some 15% with an inconclusive outcome. The call rests on the fitted dose curve; in most records, active means well fitted inhibition curve with a large enough effect; inconclusive means small, poorly fitted or top-dose-only effect; inactive means no such curve, though single readings can be large or run the other way. Shown is part of a subset that was picked to be rich in actives.
Write down one outcome, taken from active, inactive

Answered cases to consult:
{"columns": ["compound", "label-value"],
 "data": [
  ["CCS(=O)(=O)N1Cc2ccccc2CC1C(=O)Nc1nc2ccc(F)cc2s1 (stereo unspecified)", "active"],
  ["CCOC(=O)N1CCN(C(=O)C2CCN(Cc3ccc(OC)cc3OC)CC2)CC1", "active"],
  ["Cc1ccccc1N1CC(C(=O)Nc2ccc3c(c2)OCO3)CC1=O (stereo unspecified)", "inactive"],
  ["O=C(NC(=S)Nc1ccccc1N1CCCCC1)c1ccc(F)cc1", "inactive"],
  ["Cc1nc2ccccc2c(=O)n1-c1ccc(NS(=O)(=O)c2ccc(F)cc2F)cc1", "inactive"],
  ["CCOC(=O)c1ccc(NC(=O)C2CC(=O)N(c3ccc(C(C)C)cc3)C2)cc1 (stereo unspecified)", "inactive"],
  ["COc1ccc(CNC(=O)c2cc(C(=O)C3CC3)c[nH]2)cc1", "inactive"],
  ["Cc1cccc(N2CC(C(=O)Nc3ccccc3N3CCCC3)CC2=O)c1C (stereo unspecified)", "active"],
  ["CCc1ccc(CN(Cc2ccco2)C(=O)COc2ccc(Cl)c(C)c2)cc1", "inactive"],
  ["Cc1csc(SCC(=O)N(c2ccccc2)C(C)C)n1", "inactive"]
]}

Q: Please state the recorded outcome for this compound: "O=C(CSc1nnc(-c2ccco2)n1-c1ccccc1)NCCc1ccccc1"
Result: inactive

Q: Please state the recorded outcome for this compound: "Cc1ccc(-c2nc(SCc3ccc(Br)cc3)n3[nH]c(=O)cc3n2)cc1"
Result: inactive

Q: Please state the recorded outcome for this compound: "CCOC(=O)N1CCN(CCC(=O)Nc2cc(OC)ccc2OC)CC1"
Result: inactive

Q: Please state the recorded outcome for this compound: "CSc1ncccc1C(=O)Nc1nc2ccc(F)cc2s1"
Result: inactive

Q: Please state the recorded outcome for this compound: CC(=O)c1ccccc1NC(=O)C1CC(=O)N(c2ccc3c(c2)OCCO3)C1 (stereo unspecified)
Result: inactive

Q: Please state the recorded outcome for this compound: "O=[N+]([O-])c1ccc(S(=O)(=O)Nc2cccc(-c3ccc(N4CCCC4)nn3)c2)cc1"
Result: active

* * *

# target-or-system: Histone-lysine N-methyltransferase EHMT2 (Homo sapiens)
# measurement-protocol: qHTS Assay for Inhibitors of Histone Lysine Methyltransferase G9a; further: nearly all actives have a fitted effect of over 75% in size; on activity, negative = inhibition: on the % scale 0 is the no-effect control and ±100 the full control effect
# condition-description: G9a H3K9 monomethylation, AlphaScreen, 2 h; series mostly up to 59 µM
Hit rate of the full screen: of about 350,000 compounds, about 31,000 (8.9%) were called active. Not shown: some 15% with an inconclusive outcome. For the sample, actives were picked, then their nearest neighbours and some compounds at random.
measurement-kind: activity, negative = inhibition

Known activity, negative = inhibition results, listed for orientation:
{"columns": ["compound", "activity, negative = inhibition"],
 "data": [
  ["COc1ccccc1C(=O)N1CCN=C1SCc1cccnc1", "4.75% [at 12.7 µM] (inactive)"],
  ["O=C(Nc1ccc(-c2csc(Nc3cccc(C(F)(F)F)c3)n2)cc1)c1cccc(C(F)(F)F)c1", "-6.74% [at 12.7 µM] (inactive)"],
  ["O=Cc1c(Nc2ccccc2Cl)nc2ccccn2c1=O", "5.69% [at 0.501 µM] (inactive)"],
  ["Cc1ccc(S(=O)(=O)N2CCOCC2)cc1C(=O)Nc1ccccc1N1CCCC1", "11% [at 0.501 µM] (inactive)"],
  ["CC(C)N(C(=O)CSc1nnc(NC2CC2)s1)c1ccccc1", "-6.53% [at 0.501 µM] (inactive)"]
]}

Okay, here is my list. What is activity, negative = inhibition for each of these?
1. C[C@H](NC(=O)c1[nH]cnc1C(=O)Nc1nccs1)c1ccccc1
2. CCCc1nc2ccccc2c(C(=O)OCC(=O)c2ccc3c(c2)NC(=O)CO3)c1CC
3. COc1ccc(Cl)cc1C(=O)NCC#N

Result:
["8.27% [at 0.501 µM] (inactive)", "16.7% [at 12.7 µM] (inactive)", "-0.132% [at 12.7 µM] (inactive)"]

Okay, here is my list. What is activity, negative = inhibition for each of these?
1. CCCNC(=O)c1ccc(N2CCC3(CC2)CC(c2cccc(Br)c2)=NO3)c(NC(=O)c2ccco2)c1
2. O=C1c2cccc3cccc(c23)C(=O)N1c1cccc(O)c1
3. Cc1cc(N2CCN(S(=O)(=O)c3ccc(C)c(C)c3)CC2)c2ccccc2n1

Result:
7.48% [at 2.33 µM] (inactive)
21.1% [at 2.33 µM] (inactive)
22.6% [at 12.7 µM] (inactive)

Okay, here is my list. What is activity, negative = inhibition for each of these?
1. COc1ccccc1C(=O)NCCC(=O)NC1=NCCS1
2. CCN(CC(=O)Nc1ccc(OC)cc1)C(=O)CSCc1ccc(C)cc1
3. COc1ccc2c(C)cc(SCC(=O)NCC3CCCO3)nc2c1 (stereo not drawn)
4. COc1ccc(S(=O)(=O)N2CCOCC2)cc1NC(=O)c1ccc(OCC(C)C)c(OC)c1
5. NC(=O)C1CCN(C(=O)c2ccc(F)c(S(=O)(=O)N3CCOCC3)c2)CC1

Result:
1: 43% [at 12.7 µM] (inactive); 2: -8.18% [at 12.7 µM] (inactive); 3: 17.7% [at 2.33 µM] (inactive); 4: 22.9% [at 2.33 µM] (inactive); 5: 2.82% [at 2.33 µM] (inactive)

Okay, here is my list. What is activity, negative = inhibition for each of these?
1. O=C1COc2ccc(C(=O)CSc3ccc(Br)cc3)cc2N1
2. Cc1ccc([C@@H]2CC=C(C(=O)O)[C@H](c3cccc(Cl)c3)N2S(=O)(=O)c2ccc(C)cc2)cc1

Result:
1: 8.05% [at 12.7 µM] (inactive); 2: 3.76% [at 2.33 µM] (inactive)

* * *

# target-or-system: Histone-lysine N-methyltransferase EHMT2 (Homo sapiens) (UniProt Q96KQ7)
# measurement-protocol: qHTS Assay for Inhibitors of Histone Lysine Methyltransferase G9a; further: nearly all actives have a fitted effect of over 75% in size; on activity, negative = inhibition: on the % scale 0 is the no-effect control and ±100 the full control effect
# condition-description: G9a H3K9 monomethylation, AlphaScreen, 2 h; series mostly up to 59 µM
About 31,000 (8.9%) of roughly 350,000 compounds were called active. Not shown: some 15% with an inconclusive outcome. This is one part of a sample in which actives are shown more often than they occur.
What activity, negative = inhibition was measured for each of the following?

{"columns": ["compound", "activity, negative = inhibition"],
 "data": [
  ["O=C(c1cc2ccccc2o1)N1CCN(S(=O)(=O)c2ccc(Cl)s2)CC1", "0.973% [at 2.33 µM] (inactive)"],
  ["COC(=O)c1nc(NC(=O)c2ccccc2)n[nH]1", "-8.15% [at 12.7 µM] (inactive)"],
  ["O=C(CSc1nc2ccccc2c(=O)n1CCCO)NC1CC1", "-11.2% [at 2.33 µM] (inactive)"],
  ["Cc1n[nH]c(=O)c2c(NC(=O)CSc3cc(Cl)ccc3Cl)oc(C)c12", "18.3% [at 2.33 µM] (inactive)"]
]}

Okay, here is my list. What is activity, negative = inhibition for each of these?
1. CCOC(=O)N1CCN(C(=O)Cn2cnc3ccccc3c2=O)CC1
2. Cc1ccc2c(CN3CCN(S(=O)(=O)c4ccccc4C(F)(F)F)CC3)cc(=O)oc2c1
3. Cc1ccsc1/C=C1\SC(N2CCOCC2)=NC1=O
4. Cc1ccc(N2C(=O)C3C(c4ccccc4)(C2=O)C3(c2ccccc2)c2ccccc2)cc1 (stereo unspecified)
5. CN1CCN(CCCCOc2cccc3ccccc23)CC1
6. CC1CCCCN1CC(=O)NCc1ccc2c(c1)OCO2 (stereo unspecified)
7. CCN(CC)C(CNC(=O)CSc1nnnn1-c1cccc(F)c1)c1ccco1 (stereo unspecified)

Result:
1. 1.87% [at 12.7 µM] (inactive)
2. -13.1% [at 12.7 µM] (inactive)
3. 12.5% [at 12.7 µM] (inactive)
4. 28.9% [at 12.7 µM] (inactive)
5. 26.3% [at 2.33 µM] (inactive)
6. 8.12% [at 12.7 µM] (inactive)
7. 5.11% [at 12.7 µM] (inactive)
